assay: Partition coefficient, shake flask method (OECD 107); format: physicochemical; details: n-octanol/buffer pH 4.5, pH 4.5; 25°C; aqueous phase not detectable, LOQ of 0.05 μg/mL used for calculation; read-out: Log P (Log Po/buffer pH 4.5), n-octanol/buffer pH 4.5
Measured quantity: logP
Field format: numeric only.

Consider the compound CCOC(=O)CCCNC(=O)Oc1ccc(/C=C/C(=O)/C=C(O)/C=C/c2ccc(OC(=O)NCCCC(=O)OCC)c(OC)c2)cc1OC [CUR-2GE, Curcumin diethyl γ-aminobutyrate] and give its recorded logP.
3.43

---

test: Solubility mimicking gastrointestinal pH, with and without 0.5% SLS; dose number (D0); type: physicochemical; details: buffer pH 4.5 without SLS, pH 4.5, aqueous buffer, thermodynamic from solid; 37°C, without SLS; read-out: Solubility, buffer pH 4.5
Measured quantity: solubility at 1 h (µg/mL)
Response body: numeric value in µg/mL, unit text excluded.

Consider the molecule CCOC(=O)CCCNC(=O)Oc1ccc(/C=C/C(=O)/C=C(O)/C=C/c2ccc(OC(=O)NCCCC(=O)OCC)c(OC)c2)cc1OC [CUR-2GE, Curcumin diethyl γ-aminobutyrate] and give its recorded solubility at 1 h.
0.64

---

assay: Solubility mimicking gastrointestinal pH, with and without 0.5% SLS; dose number (D0); assay type: physicochemical; settings: buffer pH 6.8 without SLS, pH 6.8, aqueous buffer, thermodynamic from solid; 37°C, without SLS; read-out: Solubility, buffer pH 6.8
Measured quantity: solubility at 1 h (µg/mL)
Response body: numeric value in µg/mL, unit text excluded.

Consider the compound CCOC(=O)CCCNC(=O)Oc1ccc(/C=C/C(=O)/C=C(O)/C=C/c2ccc(OC(=O)NCCCC(=O)OCC)c(OC)c2)cc1OC [CUR-2GE, Curcumin diethyl γ-aminobutyrate] and give its recorded solubility at 1 h.
0.34

---

experiment: Release study in human plasma at 37°C; type: in vitro ADME; conditions: human plasma, read-out: t1/2, hydrolysis (converted)
Measured quantity: half-life at 5 μg/mL (min)
Response body: numeric value in min, unit text excluded.

Consider the compound CCOC(=O)CCCNC(=O)Oc1ccc(/C=C/C(=O)/C=C(O)/C=C/c2ccc(OC(=O)NCCCC(=O)OCC)c(OC)c2)cc1OC [CUR-2GE, Curcumin diethyl γ-aminobutyrate] and give its recorded half-life at 5 μg/mL.
24

---

experiment: Solubility mimicking gastrointestinal pH, with and without 0.5% SLS; dose number (D0); assay type: physicochemical; details: buffer pH 4.5 with 0.5% SLS, pH 4.5, aqueous with cosolvent or surfactant or cyclodextrin, thermodynamic from solid; 37°C + 0.5% SLS; read-out: Solubility, buffer pH 4.5
Measured quantity: solubility at 1 h (µg/mL)
Response body: numeric value in µg/mL, unit text excluded.

Consider the compound CCOC(=O)CCCNC(=O)Oc1ccc(/C=C/C(=O)/C=C(O)/C=C/c2ccc(OC(=O)NCCCC(=O)OCC)c(OC)c2)cc1OC [CUR-2GE, Curcumin diethyl γ-aminobutyrate] and give its recorded solubility at 1 h.
23.4

---

assay: Solubility in water, buffer pH 4.5 and ethanol (UPLC); format: physicochemical; conditions: water, thermodynamic from solid; 25°C; <LOQ refers to less than 0.05 μg/mL; read-out: Solubility, water
Measured quantity: solubility at 1 h

Consider the compound CCOC(=O)CCCNC(=O)Oc1ccc(/C=C/C(=O)/C=C(O)/C=C/c2ccc(OC(=O)NCCCC(=O)OCC)c(OC)c2)cc1OC [CUR-2GE, Curcumin diethyl γ-aminobutyrate] and give its recorded solubility at 1 h.
< 0.05 µg/mL

---

assay: Chemical stability in aqueous buffer solutions at 37°C; type: physicochemical; details: aqueous buffer pH 1.2; buffer pH 1.2, 37°C; read-out: t1/2, hydrolysis (converted)
Measured quantity: half-life at 10 μg/mL (h)
Response body: numeric value in h, unit text excluded.

Consider the molecule CCOC(=O)CCCNC(=O)Oc1ccc(/C=C/C(=O)/C=C(O)/C=C/c2ccc(OC(=O)NCCCC(=O)OCC)c(OC)c2)cc1OC [CUR-2GE, Curcumin diethyl γ-aminobutyrate] and give its recorded half-life at 10 μg/mL.
11.9

---

assay: Partition coefficient, shake flask method (OECD 107); type: physicochemical; conditions: n-octanol/water; 25°C; aqueous phase not detectable, LOQ of 0.05 μg/mL used for calculation; read-out: Log P (Log Po/w), n-octanol/water
Measured quantity: logP
Field format: numeric only.

Consider the compound CCOC(=O)CCCNC(=O)Oc1ccc(/C=C/C(=O)/C=C(O)/C=C/c2ccc(OC(=O)NCCCC(=O)OCC)c(OC)c2)cc1OC [CUR-2GE, Curcumin diethyl γ-aminobutyrate] and give its recorded logP.
3.57

---

Assay: Solubility in water, buffer pH 4.5 and ethanol (UPLC)
Format: physicochemical
Settings: ethanol, organic solvent or mixture, thermodynamic from solid; 25°C; read-out: Solubility, ethanol
Description: An excess amount of CUR-2GE (2 mg) was added to 2 mL of three solvents, water, phosphate buffer pH 4.5 and ethanol. The samples were sonicated at 25°C for 1 h and then placed on an orbital shaker at 100 rpm at 25°C for 1 h. […] The supernatant was analyzed using UPLC and the solubility of CUR-2GE in each medium was determined. […] The percentage of CUR-2GE in the undissociated form at various pH values was calculated based on the Henderson-Hasselbalch equation [40] […]
Measured quantity: solubility at 1 h (µg/mL)
Response body: numeric value in µg/mL, unit text excluded.

Consider the molecule CCOC(=O)CCCNC(=O)Oc1ccc(/C=C/C(=O)/C=C(O)/C=C/c2ccc(OC(=O)NCCCC(=O)OCC)c(OC)c2)cc1OC [CUR-2GE, Curcumin diethyl γ-aminobutyrate] and give its recorded solubility at 1 h.
17.9

---

test: Chemical stability in aqueous buffer solutions at 37°C; type: physicochemical; settings: aqueous buffer pH 7.4; buffer pH 7.4, 37°C; read-out: t1/2, hydrolysis (converted)
Measured quantity: half-life at 10 μg/mL (min)
Response body: numeric value in min, unit text excluded.

Consider the molecule CCOC(=O)CCCNC(=O)Oc1ccc(/C=C/C(=O)/C=C(O)/C=C/c2ccc(OC(=O)NCCCC(=O)OCC)c(OC)c2)cc1OC [CUR-2GE, Curcumin diethyl γ-aminobutyrate] and give its recorded half-life at 10 μg/mL.
2.7

---

assay: Solubility mimicking gastrointestinal pH, with and without 0.5% SLS; dose number (D0); type: physicochemical; conditions: buffer pH 6.8 with 0.5% SLS, pH 6.8, aqueous with cosolvent or surfactant or cyclodextrin, thermodynamic from solid; 37°C + 0.5% SLS; read-out: Solubility, buffer pH 6.8
Measured quantity: solubility at 1 h (µg/mL)
Response body: numeric value in µg/mL, unit text excluded.

Consider the compound CCOC(=O)CCCNC(=O)Oc1ccc(/C=C/C(=O)/C=C(O)/C=C/c2ccc(OC(=O)NCCCC(=O)OCC)c(OC)c2)cc1OC [CUR-2GE, Curcumin diethyl γ-aminobutyrate] and give its recorded solubility at 1 h.
148

Cited source for all entries: paper PMC9048745
